This collection of values is drawn from patent US8501446B2.

# experimental system: full length Aurora-A (AA 1-403) (Homo sapiens, UniProt O14965)
# Sequence (O14965 1-403): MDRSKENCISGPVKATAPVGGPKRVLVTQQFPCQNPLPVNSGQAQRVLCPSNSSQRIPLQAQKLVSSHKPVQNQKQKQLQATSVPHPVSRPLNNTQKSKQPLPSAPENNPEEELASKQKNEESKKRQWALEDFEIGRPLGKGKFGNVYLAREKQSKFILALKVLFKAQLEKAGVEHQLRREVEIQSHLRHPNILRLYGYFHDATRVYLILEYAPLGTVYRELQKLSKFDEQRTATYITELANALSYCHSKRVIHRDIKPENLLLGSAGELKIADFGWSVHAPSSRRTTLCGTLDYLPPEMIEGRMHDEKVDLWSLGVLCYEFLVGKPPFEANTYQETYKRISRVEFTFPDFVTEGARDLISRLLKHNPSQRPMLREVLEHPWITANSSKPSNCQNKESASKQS
pKi: −log10 of the molar value.
Some compounds, each annotated with its measured pKi.

Fc1cnc(-c2c[nH]c3ncc(Cl)cc23)nc1NC1CCOCC1 > 6.30

*Q* Hello, I am looking for reported pKi with full length Aurora-A (AA 1-403) (Homo sapiens, UniProt O14965) for CNc1cccc(-c2c[nH]c3ncc(-c4ccccc4)cc23)n1 . Could you help?
*A* > 6.30

*Q* Hello, I am looking for reported pKi with full length Aurora-A (AA 1-403) (Homo sapiens, UniProt O14965) for CNC(=O)c1cnc2[nH]cc(-c3ncc(F)c(N[C@@H](C)c4ccc(F)cc4)n3)c2c1 . Could you help?
*A* 5.30 to 6.30

*Q* Hello, I am looking for reported pKi with full length Aurora-A (AA 1-403) (Homo sapiens, UniProt O14965) for NC(=O)c1ccc(-c2c[nH]c3ncc(-c4ccsc4)cc23)cc1 . Could you help?
*A* > 6.30

*Q* Hello, I am looking for reported pKi with full length Aurora-A (AA 1-403) (Homo sapiens, UniProt O14965) for C[C@H](Nc1nc(-c2c[nH]c3ncc(Cl)cc23)ncc1F)c1cccc(OCC(=O)O)c1 . Could you help?
*A* > 6.30

*Q* Hello, I am looking for reported pKi with full length Aurora-A (AA 1-403) (Homo sapiens, UniProt O14965) for C[C@H](Nc1nc(-c2c[nH]c3ncc(Cl)cc23)ncc1F)C(=O)NCCCN1CCCC1=O . Could you help?
*A* 5.30 to 6.30

*Q* Hello, I am looking for reported pKi with full length Aurora-A (AA 1-403) (Homo sapiens, UniProt O14965) for O=C(c1cccc(-c2c[nH]c3ncc(-c4cc(Cl)cc(Cl)c4)cc23)c1)N1CCOCC1 . Could you help?
*A* 5.30 to 6.30

*Q* Hello, I am looking for reported pKi with full length Aurora-A (AA 1-403) (Homo sapiens, UniProt O14965) for C[C@H](Nc1cc(N2CCN(C)CC2)nc(-c2c[nH]c3ncc(Cl)cc23)n1)C(=O)NCC(F)(F)F . Could you help?
*A* 5.30 to 6.30
